This collection of values is drawn from PubChem BioAssay AID2098.

Entries and their measured activity change, negative = inhibition follow.
Experiment: blocking HSF1-driven luciferase expression – cell-based, NIH3T3, luminescence, primary screen (AID 2098);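 further: luciferase reports HSF-1 transcriptional activity via heat shock element; 0% = median of DMSO wells and -100% = zero luminescence signal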
Conditions: NIH3T3-HGL HSE-luciferase, MG132-induced, luminescence 8 h; active compounds read low; screened at 7.5 µM (by protocol)
About 2,300 (0.77%) of roughly 300,000 compounds were called active. The sample as a whole holds a higher share of actives than the screen did.
Provide the reading as a plain figure in %.

Examples with their reported activity change, negative = inhibition follow.
{"compound": "C=CCOc1ccc(/C=C2\\SC(=S)N(CCC(=O)O)C2=O)cc1", "activity change, negative = inhibition / %": -55}
{"compound": "COC(=O)c1sc(NC(=O)c2ccc(OC)cc2OC)nc1C", "activity change, negative = inhibition / %": -40.1}
{"compound": "CC(CN1CCC(n2nccc2NC(=O)C2CCCC2)CC1)c1ccccc1 (stereo unspecified)", "activity change, negative = inhibition / %": -6.86}
{"compound": "COc1ccccc1C(=O)NNC(=O)CCN1C(=O)/C(=C\\c2ccccc2)SC1=S", "activity change, negative = inhibition / %": 3.5}
{"compound": "COc1cc(SC)ccc1C(=O)Nc1nc(C)cs1", "activity change, negative = inhibition / %": -63.8}

// next item, activity change, negative = inhibition requested
## Task // activity change, negative = inhibition lookup, key: CCN(CC(=O)N1CCCC1)S(=O)(=O)c1ccc(F)cc1
## Result -65.5

====

Assay: blocking HSF1-driven luciferase expression – cell-based, NIH3T3, luminescence, primary screen (AID 2098);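 further: luciferase reports HSF-1 transcriptional activity via heat shock element; 0% = median of DMSO wells and -100% = zero luminescence signal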
Details: NIH3T3-HGL HSE-luciferase, MG132-induced, luminescence 8 h; active compounds read low; screened at 7.5 µM (by protocol)
In all, about 300,000 compounds went through this assay and about 2,300 (0.77%) were called active. Shown is part of a subset that was picked to be rich in actives.
Entries and their measured activity change, negative = inhibition follow.

Examples with their reported activity change, negative = inhibition follow.
{"compound": "CC(=O)c1ccc(S(=O)(=O)Nc2ccc(-c3ccc4nncn4n3)cc2)cc1", "activity change, negative = inhibition": "2.56% (inactive)"}
{"compound": "O=C(CSc1ccccc1F)NC1CCS(=O)(=O)C1 (centres undefined)", "activity change, negative = inhibition": "-68.8% (active)"}
{"compound": "O=C(NCCc1ccco1)C(=O)NCCC1CCCCN1S(=O)(=O)c1ccccc1 (centres undefined)", "activity change, negative = inhibition": "1.49% (inactive)"}
{"compound": "COc1ccc(C(=O)Nc2ccccc2C(=O)N/N=C/c2ccc(O)c(OC)c2)cc1", "activity change, negative = inhibition": "-88.5% (active)"}
{"compound": "COC(=O)c1ccc(OCC(O)CN(CCO)CC(O)Cn2ccc3ccccc32)cc1 (centres undefined)", "activity change, negative = inhibition": "-1.93% (inactive)"}

## Task // activity change, negative = inhibition lookup, key: O=C(CSc1ncccn1)NC(=O)NCc1ccccc1
## Result 2.98% (inactive)

## Task // activity change, negative = inhibition lookup, key: O=C(COc1cccc2c1CCNC2=O)NC1CCCCC1
## Result -0.75% (inactive)

## Task // activity change, negative = inhibition lookup, key: COc1ccc(/C=N/NC(=O)c2ccccc2)cc1OS(=O)(=O)c1ccccc1
## Result 4.64% (inactive)

## Task // activity change, negative = inhibition lookup, key: CC1CCN(c2c(NCc3ccc(C(=O)NCc4ccccc4)cc3)c(=O)c2=O)CC1
## Result -69.2% (active)
